Provenance of the data: patent EP1586565A1

target: Trypsin (Sus scrofa, UniProt P00761); test: Trypsin Assay; settings: % inhibition at 30 uM (cells with % or %@30, bare 0)
Sequence (P00761 9-231): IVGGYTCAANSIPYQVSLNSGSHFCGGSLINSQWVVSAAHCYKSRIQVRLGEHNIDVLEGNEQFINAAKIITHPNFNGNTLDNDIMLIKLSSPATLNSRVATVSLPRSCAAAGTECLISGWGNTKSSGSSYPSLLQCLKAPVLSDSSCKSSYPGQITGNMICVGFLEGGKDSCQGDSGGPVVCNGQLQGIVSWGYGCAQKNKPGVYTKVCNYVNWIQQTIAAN
Metric Name: IC50 or % Inhibition Trpysin II (30 uM) (%@30)

1) Nc1cccc(-c2c(Cl)nc(NC3CCC3)c(=O)n2CC(=O)NCc2ccccc2)c1; 7
2) N=C(N)c1ccc(CNC(=O)Cn2c(-c3ccccc3)c(Cl)nc(NCc3ccccn3)c2=O)cc1; 25
3) Nc1cccc(-c2c(Cl)nc(NC3CCC3)c(=O)n2CC(=O)NCCc2ccccc2)c1; 9

----------
molecular target: Human factor Xa (Homo sapiens); construct: leads from XII to XIIa to XIa to IXa and to the conversion of X to Xa; purchased Enzyme Research Laboratories, South Bend IN; assay: Xa Assay; format: biochemical; settings: % inhibition at 30 µM (cells with % or %@30, bare 0)
Sequence (P00742 235-488 limits assumed): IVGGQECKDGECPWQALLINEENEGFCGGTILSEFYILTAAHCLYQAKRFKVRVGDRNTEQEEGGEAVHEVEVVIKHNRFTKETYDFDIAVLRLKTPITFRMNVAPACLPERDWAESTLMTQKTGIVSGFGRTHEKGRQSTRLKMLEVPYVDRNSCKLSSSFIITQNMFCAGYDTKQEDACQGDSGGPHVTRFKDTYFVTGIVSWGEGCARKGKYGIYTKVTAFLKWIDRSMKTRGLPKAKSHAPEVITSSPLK
Sequence (P00742 41-179 limits assumed): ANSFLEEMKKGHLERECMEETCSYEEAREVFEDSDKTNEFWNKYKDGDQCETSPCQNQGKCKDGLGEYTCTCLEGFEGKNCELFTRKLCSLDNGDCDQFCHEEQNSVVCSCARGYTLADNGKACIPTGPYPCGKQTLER
Metric Name: IC50 or % Inhibition Factor Xa (30 µM) (%)

1) CC(C)Nc1nc(Cl)c(-c2ccc(Cl)nc2)n(CC(=O)NCc2ccc(C(=N)N)cc2F)c1=O; 13
2) CN(C)CCCNc1nc(Cl)c(-c2ccccc2)n(CC(=O)NCc2ccc(C(=N)N)cc2)c1=O; 19
3) Cc1c(Cl)nc(NCCc2cccc(Cl)c2)c(=O)n1CC(=O)NCc1ccc(C(=N)N)cc1; 14
4) N=C(N)c1ccc(CNC(=O)Cn2c(-c3ccccc3)c(Cl)nc(NCc3c(F)cccc3F)c2=O)cc1; 9
5) N=C(N)c1ccc(CNC(=O)Cn2c(-c3ccccc3)c(Cl)nc(NCc3ccccc3Cl)c2=O)cc1; 21
6) N=C(N)c1ccc(CNC(=O)Cn2c(-c3ccccc3)c(Cl)nc(NCCc3cccc(C(F)(F)F)c3)c2=O)cc1; 4
7) N=C(N)c1ccc(CNC(=O)Cn2c(-c3ccc(Cl)cc3)c(Cl)nc(NCCc3ccccc3)c2=O)cc1; 36
8) Cc1cccc(Cl)c1CNc1nc(Cl)c(-c2ccccc2)n(CC(=O)NCc2ccc(C(=N)N)cc2)c1=O; 14
9) N=C(N)c1ccc(CNC(=O)Cn2c(-c3ccccc3)c(Cl)nc(NCCc3ccncc3)c2=O)cc1; 0
